Source listed as patent US5292733A.

test system: Pseudomonas aeruginosa ATCC 25619; test: Antibacterial activity MIC, two-fold agar dilution; assay type: cell-based; conditions: ATCC25619; Pseudomonas aeruginosa ATCC 25619; Muller-Hinton agar, 37° C., 20 hours; read-out: Antibacterial Activity MIC
Attribute: MIC
Please give a number only; it is taken to be in µg/mL.

Molecule: CC[n+]1c(N)cc(SCC2=C(C(=O)[O-])N3C(=O)[C@@H](NC(=O)/C(=N\OC(C)C(=O)O)c4csc(N)n4)[C@H]3SC2)nc1N (stereo partly drawn)
MIC / µg/mL: 1

[Q] Request: MIC, test system Pseudomonas aeruginosa ATCC 25619, entry `C[n+]1c(N)cc(SCC2=C(C(=O)[O-])N3C(=O)[C@@H](NC(=O)/C(=N\OC(C)(C)C(=O)O)c4csc(N)n4)[C@H]3SC2)nc1N`
[A] 1

[Q] Try this molecule next: CC[n+]1c(SCC2=C(C(=O)[O-])N3C(=O)[C@@H](NC(=O)/C(=N\OC(C)C(=O)O)c4csc(N)n4)[C@H]3SC2)cc(N)nc1N (stereo partly drawn)
[A] 1

* * *

Attribute: MIC
system: Proteus mirabilis ATCC 25933; experiment: Antibacterial activity MIC, two-fold agar dilution; format: cell-based; settings: ATCC25933; Proteus mirabilis ATCC 25933; Muller-Hinton agar, 37° C., 20 hours; read-out: Antibacterial Activity MIC
Please give a number only; it is taken to be in µg/mL.

Molecule: CCO/N=C(\C(=O)N[C@@H]1C(=O)N2C(C(=O)[O-])=C(CSc3cc(N)[n+](CC)c(N)n3)CS[C@H]12)c1nsc(N)n1 [Compound I-11]
MIC / µg/mL: 0.5

[Q] Please look up its MIC: CC[n+]1c(N)cc(SCC2=C(C(=O)[O-])N3C(=O)[C@@H](NC(=O)/C(=N\OC(C)(C)C(=O)O)c4csc(N)n4)[C@H]3SC2)nc1N [Compound I-13]
[A] 0.13

[Q] Try this molecule next: CC[n+]1c(SCC2=C(C(=O)[O-])N3C(=O)[C@@H](NC(=O)/C(=N\OC(C)(C)C(=O)O)c4csc(N)n4)[C@H]3SC2)cc(N)nc1N [Compound I-2]
[A] 0.31

* * *

test system: Enterobacter aerogenes ATCC 29751; assay: Antibacterial activity MIC, two-fold agar dilution; format: cell-based; details: Klebsiella aerogenes, ATCC29751; Enterobacter aerogenes ATCC 29751; Muller-Hinton agar, 37° C., 20 hours; read-out: Antibacterial Activity MIC
Attribute: MIC
Please give a number only; it is taken to be in µg/mL.

The examples below pair each entry with its known result.
Compound: CCO/N=C(\C(=O)N[C@@H]1C(=O)N2C(C(=O)[O-])=C(CSc3cc(N)nc(N)[n+]3CC)CS[C@H]12)c1nsc(N)n1
MIC [µg/mL]: 0.5
//
Compound: CC[n+]1c(N)cc(SCC2=C(C(=O)[O-])N3C(=O)[C@@H](NC(=O)/C(=N\OC(C)C(=O)O)c4csc(N)n4)[C@H]3SC2)nc1N (stereo partly drawn)
MIC [µg/mL]: 1

// next item, MIC requested
[Q] Please look up its MIC: `CCO/N=C(\C(=O)N[C@@H]1C(=O)N2C(C(=O)[O-])=C(CSc3cc(N)nc(N)[n+]3C)CS[C@H]12)c1nsc(N)n1`
[A] 0.5
